# target.under.test: T1, D1 domain of human IL-2Rγ extracellular domain expressed with a C-terminal myc-myc-hexahistidine tag (human)
# T1 construct: also called human IL2Rγ domain 1
# T1 chain: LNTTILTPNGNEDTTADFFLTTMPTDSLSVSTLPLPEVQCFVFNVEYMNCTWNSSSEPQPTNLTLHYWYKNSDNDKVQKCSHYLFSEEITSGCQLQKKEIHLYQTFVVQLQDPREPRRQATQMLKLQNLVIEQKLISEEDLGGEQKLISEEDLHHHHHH
# procedure.text: SPR, mAb captured on anti-hFc, 25 C
recorded.endpoint: 100 nM Ag Bound (RU)
All answers are understood in RU, so give the number only.

H4H12858P (antibody, human IgG4 S228P, kappa, V domains shown, human IgG4; also called REGN9433) VH: EVQLVESGGDLVQPGGSLRLSCTASGFIFRNYAMNWVRQAPGKGLEWLSGILGSNDNTYYVDSVKGRFTISRDNSRNTLYLQMNSLRAEDSAVYYCAKGDAGGFDYWGQGTLVTVSS VL: DVVMTQSPLSLPVILGQPASISCRSSQSLVSSDGNTYLNWFQQRPGQSPRRLIYKVSNRDSGVPDRFSGSGSGTDFTLKISRVEAEDVGAYYCMQGSYWPPTFGQGTKLEIKR    1

IN: I am curious: what 100 nM Ag Bound value has been reported for H4H12890P (antibody, human IgG4 S228P, kappa, V domains shown, human IgG4) VH: EVQLVESGGGLVQPGGSLRLSCAASGFTFNNYAMHWVRQAPGKGLEYVSSISSSGGSTYYEDSVKGRFTISRDNSKNTLYLQMGSLRAEDMAVYYCARSFYGSGTYYDTFDMWGQGTMVTVSS VL: DIQMTQSPSSLSASIGDRVTITCRASQSISRYLNWYQQKPGKAPKLLIYAASSLQSGVPSRFSASGSGTDFTLTISSLQPEDFATYYCQQSYSTPFTFGQGTKLEIKR ?
OUT: 1
